target: pT7_6His-AlfaTag-HOXD13 (human, UniProt P35453 263-343); test: PADIT-seq; conditions: dsDNA, one strand shown
Sequence (P35453 263-343): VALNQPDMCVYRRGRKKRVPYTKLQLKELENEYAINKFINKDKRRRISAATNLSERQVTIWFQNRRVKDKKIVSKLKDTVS
value.kind: binding signal (log2FC)

- biopolymer.sequence: "CTCGAGGATATCAAGATCTGGCCTCGGCGGCTTAAAAGGAACCTCTAGCTAGCCGACTCACTATAGGGATAATCGCCCTGAGCAAAGACC"
  obs.value: -0.00793
- biopolymer.sequence: "CTCGAGGATATCAAGATCTGGCCTCGGCTGTTTAAAAGGAACCTCTAGCTAGCCGACTCACTATAGGGATAATCGCCCTGAGCAAAGACC"
  obs.value: 1.97
- biopolymer.sequence: "CTCGAGGATATCAAGATCTGGCCTCGGCCCTGTAAAAGGAACCTCTAGCTAGCCGACTCACTATAGGGATAATCGCCCTGAGCAAAGACC"
  obs.value: 2.46
- biopolymer.sequence: "CTCGAGGATATCAAGATCTGGCCTCGGCTTTTTACTTGGAACCTCTAGCTAGCCGACTCACTATAGGGATAATCGCCCTGAGCAAAGACC"
  obs.value: 1.32
- biopolymer.sequence: "CTCGAGGATATCAAGATCTGGCCTCGGCGCGCTCGCGGGAACCTCTAGCTAGCCGACTCACTATAGGGATAATCGCCCTGAGCAAAGACC"
  obs.value: -1.06
- biopolymer.sequence: "CTCGAGGATATCAAGATCTGGCCTCGGCGTTTTAAATGGAACCTCTAGCTAGCCGACTCACTATAGGGATAATCGCCCTGAGCAAAGACC"
  obs.value: 1.63
- biopolymer.sequence: "CTCGAGGATATCAAGATCTGGCCTCGGCCCGCTAAAAGGAACCTCTAGCTAGCCGACTCACTATAGGGATAATCGCCCTGAGCAAAGACC"
  obs.value: -0.398
- biopolymer.sequence: "CTCGAGGATATCAAGATCTGGCCTCGGCTACGTAAAAGGAACCTCTAGCTAGCCGACTCACTATAGGGATAATCGCCCTGAGCAAAGACC"
  obs.value: 0.743
- biopolymer.sequence: "CTCGAGGATATCAAGATCTGGCCTCGGCGCAGTAAAAGGAACCTCTAGCTAGCCGACTCACTATAGGGATAATCGCCCTGAGCAAAGACC"
  obs.value: 2.28
- biopolymer.sequence: "CTCGAGGATATCAAGATCTGGCCTCGGCATTTTAAGCGGAACCTCTAGCTAGCCGACTCACTATAGGGATAATCGCCCTGAGCAAAGACC"
  obs.value: 0.548
- biopolymer.sequence: "CTCGAGGATATCAAGATCTGGCCTCGGCCGCCCAAATGGAACCTCTAGCTAGCCGACTCACTATAGGGATAATCGCCCTGAGCAAAGACC"
  obs.value: -0.854
- biopolymer.sequence: "CTCGAGGATATCAAGATCTGGCCTCGGCGTTTTAAACGGAACCTCTAGCTAGCCGACTCACTATAGGGATAATCGCCCTGAGCAAAGACC"
  obs.value: 0.884
- biopolymer.sequence: "CTCGAGGATATCAAGATCTGGCCTCGGCGTTTTAAAAGGAACCTCTAGCTAGCCGACTCACTATAGGGATAATCGCCCTGAGCAAAGACC"
  obs.value: 2.44
- biopolymer.sequence: "CTCGAGGATATCAAGATCTGGCCTCGGCTTTTTACTAGGAACCTCTAGCTAGCCGACTCACTATAGGGATAATCGCCCTGAGCAAAGACC"
  obs.value: 3.21
- biopolymer.sequence: "CTCGAGGATATCAAGATCTGGCCTCGGCCGCCCATATGGAACCTCTAGCTAGCCGACTCACTATAGGGATAATCGCCCTGAGCAAAGACC"
  obs.value: -0.841
- biopolymer.sequence: "CTCGAGGATATCAAGATCTGGCCTCGGCCTTTGGGCGGGAACCTCTAGCTAGCCGACTCACTATAGGGATAATCGCCCTGAGCAAAGACC"
  obs.value: -0.932
- biopolymer.sequence: "CTCGAGGATATCAAGATCTGGCCTCGGCATTTTAGCGGGAACCTCTAGCTAGCCGACTCACTATAGGGATAATCGCCCTGAGCAAAGACC"
  obs.value: 0.146
- biopolymer.sequence: "CTCGAGGATATCAAGATCTGGCCTCGGCCTTTTAGTAGGAACCTCTAGCTAGCCGACTCACTATAGGGATAATCGCCCTGAGCAAAGACC"
  obs.value: 1.19
- biopolymer.sequence: "CTCGAGGATATCAAGATCTGGCCTCGGCCTTTTAACCGGAACCTCTAGCTAGCCGACTCACTATAGGGATAATCGCCCTGAGCAAAGACC"
  obs.value: 1.24
- biopolymer.sequence: "CTCGAGGATATCAAGATCTGGCCTCGGCGTTTTAATTGGAACCTCTAGCTAGCCGACTCACTATAGGGATAATCGCCCTGAGCAAAGACC"
  obs.value: 2.42
- biopolymer.sequence: "CTCGAGGATATCAAGATCTGGCCTCGGCAACATAAAAGGAACCTCTAGCTAGCCGACTCACTATAGGGATAATCGCCCTGAGCAAAGACC"
  obs.value: 1.52
- biopolymer.sequence: "CTCGAGGATATCAAGATCTGGCCTCGGCATGTTAAAAGGAACCTCTAGCTAGCCGACTCACTATAGGGATAATCGCCCTGAGCAAAGACC"
  obs.value: 1.48
- biopolymer.sequence: "CTCGAGGATATCAAGATCTGGCCTCGGCTCTTTAAAAGGAACCTCTAGCTAGCCGACTCACTATAGGGATAATCGCCCTGAGCAAAGACC"
  obs.value: 2.42
- biopolymer.sequence: "CTCGAGGATATCAAGATCTGGCCTCGGCAACTTAAAAGGAACCTCTAGCTAGCCGACTCACTATAGGGATAATCGCCCTGAGCAAAGACC"
  obs.value: 0.617
- biopolymer.sequence: "CTCGAGGATATCAAGATCTGGCCTCGGCATTTTAAGGGGAACCTCTAGCTAGCCGACTCACTATAGGGATAATCGCCCTGAGCAAAGACC"
  obs.value: 1.95
- biopolymer.sequence: "CTCGAGGATATCAAGATCTGGCCTCGGCAGCATAAAAGGAACCTCTAGCTAGCCGACTCACTATAGGGATAATCGCCCTGAGCAAAGACC"
  obs.value: 0.863
- biopolymer.sequence: "CTCGAGGATATCAAGATCTGGCCTCGGCGCGGAAGCGGGAACCTCTAGCTAGCCGACTCACTATAGGGATAATCGCCCTGAGCAAAGACC"
  obs.value: -0.566

* * *

target: pT7_6His-AlfaTag-HOXD13 (human, UniProt P35453 263-343); test: PADIT-seq; settings: dsDNA, one strand shown

- biopolymer.sequence: "CTCGAGGATATCAAGATCTGGCCTCGGCAACTGGGCGGGAACCTCTAGCTAGCCGACTCACTATAGGGATAATCGCCCTGAGCAAAGACC"
  target.or.test.system: "pT7_6His-AlfaTag-HOXD13 (human, UniProt P35453 263-343)"
  binding signal (log2FC): -0.923
- biopolymer.sequence: "CTCGAGGATATCAAGATCTGGCCTCGGCTTAGTAAAAGGAACCTCTAGCTAGCCGACTCACTATAGGGATAATCGCCCTGAGCAAAGACC"
  target.or.test.system: "pT7_6His-AlfaTag-HOXD13 (human, UniProt P35453 263-343)"
  binding signal (log2FC): 1.23
- biopolymer.sequence: "CTCGAGGATATCAAGATCTGGCCTCGGCGTTTTAGGGGGAACCTCTAGCTAGCCGACTCACTATAGGGATAATCGCCCTGAGCAAAGACC"
  target.or.test.system: "pT7_6His-AlfaTag-HOXD13 (human, UniProt P35453 263-343)"
  binding signal (log2FC): 1.59
- biopolymer.sequence: "CTCGAGGATATCAAGATCTGGCCTCGGCTAAGTAAAAGGAACCTCTAGCTAGCCGACTCACTATAGGGATAATCGCCCTGAGCAAAGACC"
  target.or.test.system: "pT7_6His-AlfaTag-HOXD13 (human, UniProt P35453 263-343)"
  binding signal (log2FC): 0.166
- biopolymer.sequence: "CTCGAGGATATCAAGATCTGGCCTCGGCGTTTTAGCAGGAACCTCTAGCTAGCCGACTCACTATAGGGATAATCGCCCTGAGCAAAGACC"
  target.or.test.system: "pT7_6His-AlfaTag-HOXD13 (human, UniProt P35453 263-343)"
  binding signal (log2FC): 0.799
- biopolymer.sequence: "CTCGAGGATATCAAGATCTGGCCTCGGCTTGGTAAAAGGAACCTCTAGCTAGCCGACTCACTATAGGGATAATCGCCCTGAGCAAAGACC"
  target.or.test.system: "pT7_6His-AlfaTag-HOXD13 (human, UniProt P35453 263-343)"
  binding signal (log2FC): 0.112
- biopolymer.sequence: "CTCGAGGATATCAAGATCTGGCCTCGGCTCGCTAAAAGGAACCTCTAGCTAGCCGACTCACTATAGGGATAATCGCCCTGAGCAAAGACC"
  target.or.test.system: "pT7_6His-AlfaTag-HOXD13 (human, UniProt P35453 263-343)"
  binding signal (log2FC): 0.138
- biopolymer.sequence: "CTCGAGGATATCAAGATCTGGCCTCGGCATTTTAGCAGGAACCTCTAGCTAGCCGACTCACTATAGGGATAATCGCCCTGAGCAAAGACC"
  target.or.test.system: "pT7_6His-AlfaTag-HOXD13 (human, UniProt P35453 263-343)"
  binding signal (log2FC): 0.721
- biopolymer.sequence: "CTCGAGGATATCAAGATCTGGCCTCGGCATTTTATGGGGAACCTCTAGCTAGCCGACTCACTATAGGGATAATCGCCCTGAGCAAAGACC"
  target.or.test.system: "pT7_6His-AlfaTag-HOXD13 (human, UniProt P35453 263-343)"
  binding signal (log2FC): 3.25
- biopolymer.sequence: "CTCGAGGATATCAAGATCTGGCCTCGGCCTCATAAAAGGAACCTCTAGCTAGCCGACTCACTATAGGGATAATCGCCCTGAGCAAAGACC"
  target.or.test.system: "pT7_6His-AlfaTag-HOXD13 (human, UniProt P35453 263-343)"
  binding signal (log2FC): 3.06
- biopolymer.sequence: "CTCGAGGATATCAAGATCTGGCCTCGGCCTTTTACGAGGAACCTCTAGCTAGCCGACTCACTATAGGGATAATCGCCCTGAGCAAAGACC"
  target.or.test.system: "pT7_6His-AlfaTag-HOXD13 (human, UniProt P35453 263-343)"
  binding signal (log2FC): 3.52
- biopolymer.sequence: "CTCGAGGATATCAAGATCTGGCCTCGGCATTTTAATGGGAACCTCTAGCTAGCCGACTCACTATAGGGATAATCGCCCTGAGCAAAGACC"
  target.or.test.system: "pT7_6His-AlfaTag-HOXD13 (human, UniProt P35453 263-343)"
  binding signal (log2FC): 2.51
- biopolymer.sequence: "CTCGAGGATATCAAGATCTGGCCTCGGCAAATGGGCGGGAACCTCTAGCTAGCCGACTCACTATAGGGATAATCGCCCTGAGCAAAGACC"
  target.or.test.system: "pT7_6His-AlfaTag-HOXD13 (human, UniProt P35453 263-343)"
  binding signal (log2FC): -0.536
- biopolymer.sequence: "CTCGAGGATATCAAGATCTGGCCTCGGCGGTGTAAAAGGAACCTCTAGCTAGCCGACTCACTATAGGGATAATCGCCCTGAGCAAAGACC"
  target.or.test.system: "pT7_6His-AlfaTag-HOXD13 (human, UniProt P35453 263-343)"
  binding signal (log2FC): 0.668
